Please map values of melting point to classes as shown: low (below 20 °C), mid (20 °C to below 200 °C), high (200 °C or more)

Below are worked cases with known answers.
OB(O)c1cc(F)c(F)cc1F :: mid
CC1CNCC(C)O1 (stereo not given) :: low
O=C(O)/C=C/c1cccc(Br)c1 [trans-3-bromocinnamic acid] :: mid
Cc1ccccc1 [Toluene] :: low
Nc1c(Br)cc(Br)cc1C(=O)O :: high
O=[O+][O-] [Trioxid-2-en-2-ium-1-ide] :: low
C[C@@H]1C[C@H]2[C@@H]3CCC4=CC(=O)C=C[C@]4(C)[C@@]3(F)[C@@H](O)C[C@]2(C)[C@@]1(O)C(=O)CO :: high
COC(=O)c1cccc(Cl)c1 [methyl 3-chlorobenzoate] :: mid

Let's switch to this compound now.
GET /class?item= Oc1c(Br)cc(Br)cc1Br mid

###

Short version: melting point at least 50 °C is t, less is f.

CB(C)Br :: f
Cc1ccnc(NS(=O)(=O)c2ccc(N)cc2)n1 [sulfamerazine (polymorph 1)] :: t
COc1ccc(Br)cc1 :: f
CCCCCCCCC=O :: f
O=[N+]([O-])c1cccc(I)c1 :: f

Is melting point for COC1=CC(=O)C[C@@H](C)[C@]12Oc1c(Cl)c(OC)cc(OC)c1C2=O at or above 50 °C? t

Does the reported melting point for N#CC1(O)CCN(Cc2ccccc2)CC1 [1-benzyl-4-cyano-4-hydroxypiperidine] fall at or above the 50 °C mark? t

I'd appreciate it if you could say whether CC(=O)Oc1ccc(OC(C)=O)cc1 [hydroquinone_diacetate] has melting point at least equal to 50 °C. t

Check if melting point >= 50 °C (inclusive). Item: COc1ccccc1-c1nnn[nH]1 t

###

// reported melting point for each item listed
Give the number; °C is assumed, so skip it.

C=Cc1ccc(N)cc1 :: 26
c1ccc2c(c1)CCO2 [2,3-dihydrobenzo[b]furan] :: -21
COC(=O)c1sccc1O [methyl 3-hydroxythiophene-2-carboxylate] :: 46
CCCC(=O)O [butanoic_acid] :: -5
CC(=O)/C(=N/Nc1cc(Cl)ccc1Cl)C(=O)C(F)(F)F :: 84
O=C1OC(c2ccc(O)cc2)(c2ccc(O)cc2)c2ccccc21 :: 262
Nc1ccc(CCC(=O)O)cc1 :: 134
c1ccc2ccccc2c1 :: 82

State the recorded melting point for this entry: Cc1cc(C(=O)NCCc2ccc(S(=O)(=O)NC(=O)NN3CCCCCC3)cc2)no1 [glisoxepid] 189

Given Fc1ccc(-c2ccc(F)cc2)cc1 , state its recorded melting point. 88

Consider the compound shown here: CCC(C)I (stereo unspecified) What is its recorded melting point? -104

###

melting point: recorded values
Reply numerically in °C, unit not repeated.

Example results:
C[C@H]1c2cccc(O)c2C(=O)C2=C(O)[C@]3(O)C(=O)C(C(N)=O)=C(O)[C@@H](N(C)C)[C@@H]3[C@@H](O)[C@@H]21 :: 201
O=[N+]([O-])c1ccccc1B(O)O :: 150
O=C(Nc1cccc(OC(=O)c2ccccc2)c1)c1ccccc1 [3-(benzoylamino)phenyl benzoate] :: 153
C#CC(C)(C)O :: 3
C[Si](C)(C)Cl [Chloro(trimethyl)silane] :: -58
CC(=O)C=C(C)c1ccc(-c2ccccc2)cc1 :: 133
N#Cc1ccc(Oc2ccnc3ccccc23)cc1C#N :: 175
Cc1c[nH]c(C)n1 :: 86
O=C1OC(c2ccc(O)cc2)(c2ccc(O)cc2)c2ccccc21 :: 260
N#CCc1ccc(Cc2ccccc2)cc1 :: 36

Please give the measured melting point for this compound: CCCCCC(=O)CCCCC 15

Would you mind telling me what melting point value was observed for C[SiH](C)c1ccccc1 ? -124

// melting point lookup, key: COc1ccc(C(=O)c2ccc(-c3ccccc3)cc2)cc1OC 108

melting point lookup needed for CCc1ccc(CC)cc1 , thanks. -43

Any idea what melting point was measured for CN(C)[C@@H]1C(O)=C(C(N)=O)C(=O)[C@@]2(O)C(O)=C3C(=O)c4c(O)cccc4[C@@](C)(O)[C@H]3C[C@@H]12 ? 165
